- experimentalSystem: ProfilerPro Kinase Selectivity Assay Kit kinases (Homo sapiens)
- Format: biochemical
- runConditions: PAK2; 1 μM compound concentration
measuredQuantity: POC (Percent of control) PAK2 (POC)

>>> df
                            structurestring               measuredquantity  valuereported
0  Cc1cnc(Nc2cccc3[nH]ncc23)c(-c2nc(C)nc(N)n2)c1  POC (Percent of control) PAK2             99
1    COc1ccc(Nc2ncccc2-c2ncnc3[nH]cnc23)cn1  POC (Percent of control) PAK2            103
2  COc1ccc(Nc2ncc(Cc3ccc(S(C)(=O)=O)cc3)cc2-c2nc(C)nc3[nH]cnc23)cn1  POC (Percent of control) PAK2             98
3  c1cnc(Nc2cccc3[nH]ncc23)c(-c2ncnc3[nH]cnc23)c1  POC (Percent of control) PAK2             96
4  Cc1nc(-c2cccnc2Nc2cccc3[nH]ncc23)c2nc[nH]c2n1  POC (Percent of control) PAK2             95
5  Cc1nc(N)cc(-c2cccnc2Nc2cccc3[nH]ncc23)n1  POC (Percent of control) PAK2             99
6  COc1ccc(Nc2ncc(CN3CCN(C(C)=O)CC3)cc2-c2nc(C)nc3[nH]cnc23)cn1  POC (Percent of control) PAK2             97
7  Cc1nc(N)nc(-c2cccnc2Nc2cccc3[nH]ccc23)n1  POC (Percent of control) PAK2             99
8  COc1ccc(Nc2ncccc2-c2nc(C)nc3[nH]cnc23)cn1  POC (Percent of control) PAK2            102

----------
# POC (Percent of control) PKA alpha annotations
- experimentalSystem: ProfilerPro Kinase Selectivity Assay Kit kinases (Homo sapiens, UniProt P17612)
- Type: biochemical
- runConditions: PKA alpha; 1 μM compound concentration
measuredQuantity: POC (Percent of control) PKA alpha (POC)

In [3]: df
Out[3]:
                            structurestring                    measuredquantity  measurementunit  valuereported
0  Cc1nc(N)nc(-c2cccnc2Nc2cccc3[nH]ccc23)n1  POC (Percent of control) PKA alpha              POC             97
1  COc1ccc(Nc2ncc(CN3CCN(C(C)=O)CC3)cc2-c2nc(C)nc3[nH]cnc23)cn1  POC (Percent of control) PKA alpha              POC             99
2  c1cnc(Nc2cccc3[nH]ccc23)c(-c2ncnc3[nH]cnc23)c1  POC (Percent of control) PKA alpha              POC             70
3  COc1ccc(Nc2ncccc2-c2nc(C)nc3[nH]cnc23)cn1  POC (Percent of control) PKA alpha              POC             96
4    COc1ccc(Nc2ncccc2-c2ncnc3[nH]cnc23)cn1  POC (Percent of control) PKA alpha              POC             97

----------
- experimentalSystem: ProfilerPro Kinase Selectivity Assay Kit kinases (Homo sapiens, UniProt O00141)
- Type: biochemical
- runConditions: SGK1; 1 μM compound concentration
Would you mind classing the entries by POC (Percent of control) SGK1? Ranges: bin 1: < 90 POC; bin 2: ≥ 90 POC and < 100 POC; bin 3: ≥ 100 POC

In [3]: df
Out[3]:
                            structurestring  categorylabel
0  Cc1nc(N)nc(-c2cc(CN3CCN(S(C)(=O)=O)CC3)cnc2Nc2cccc(O)c2)n1          bin 2
1  Cc1nc(N)cc(-c2cccnc2Nc2cccc3[nH]ncc23)n1          bin 1
2  CCc1cnc(Nc2ccc(OC)nc2)c(-c2nc(C)nc3[nH]cnc23)c1          bin 3
3  COc1ccc(Nc2ncc(Cc3ccc(S(C)(=O)=O)cc3)cc2-c2nc(C)nc3[nH]cnc23)cn1          bin 2
4    COc1ccc(Nc2ncccc2-c2ncnc3[nH]cnc23)cn1          bin 2
